Source of measurements: ChEMBL document CHEMBL1201862

Test system: CCRF-CEM
MEASUREMENT_PROTOCOL: NCI tumour cell line growth inhibition, 48 h
Activity calls are given as the source filed them. Rule as the data show it: active = GI50 up to about 1.1 µM and inactive = higher.
Outcomes you can answer with include only these: active, inactive

* Cc1cc2c(cc1C)NC(=O)C(NC(=O)/C=C/c1ccccc1)C=N2 (centres undefined) | inactive
* CC(=O)Oc1ccc2oc(=O)cc(C)c2c1 | inactive
* COc1cc(OC(=O)c2ccccc2)cc2c1C(=O)C=CC2=O | active

Look up the recorded call for Cc1nc(N)sc1/N=N/c1ccccc1Br in this test.
inactive

----------
System: NCI-H226
MEASUREMENT_PROTOCOL: NCI tumour cell line growth inhibition, 48 h
Calls of active or inactive are those of the source. Cut-off read from the data, not from the text of the source: active = GI50 up to about 1.1 µM and inactive = higher.
Entry note: the call must match one of active, inactive

Solved cases (10 shown):
• CCCCCCCCCCCCNC(=O)NCC(OCC)OCC = inactive
• O=C1C=CC(=O)c2cc(Sc3ccccc3)c(=O)c(Sc3ccccc3)cc21 = inactive
• ClCCc1ccccc1CC1=NCCc2ccccc21 = inactive
• COc1cccc(-c2c(C#N)c(N)nc3c2CCS(=O)(=O)c2ccc(C)cc2-3)c1 = inactive
• C[C@H]1ON2CCC[C@@H]2[C@@H]1C(=O)N1C2CC3CCC2(CS1(=O)=O)C3(C)C (stereo partly specified) = inactive
• NC(=O)CC(Nc1ncc2c(n1)-c1ccccc1OC2)C(=O)O (stereo unspecified) = inactive
• CC(=O)c1c[nH]cc1CO = inactive
• NN/C(=N\S(=O)(=O)c1cc(Cl)c(Oc2ccc([N+](=O)[O-])cc2Cl)c(Cl)c1)Nc1ccc(Cl)cc1 = inactive
• COc1cc(OC(=O)c2ccccc2)cc2c1C(=O)C=CC2=O = inactive
• C#CC1(O)CCC2[C@@H]3CCc4cc(Oc5nc(F)nc(-c6c(C)c(C(=O)OCC)n7ccccc67)n5)ccc4C3CC[C@@]21C (stereo partly specified) = inactive

Outcome? COC(=O)C1=C(OC)[C@H]2C#C/C=C\C#C[C@@H]3Nc4c(cc(O)c5c4C(=O)c4ccccc4C5=O)[C@]24O[C@@]34[C@H]1C
active

Short answer needed: outcome of this test for Cc1c2ccccc2c(C2C3C(=O)N(c4ccc(Br)cc4)C(=O)C3ON2C(C(N)=O)c2ccccc2)c2ccccc12 (stereo unspecified) ?
inactive

# lookup: test call for C[C@@H]1OC(=O)N2CCCC(=C3SCCCS3)C12 (stereo partly specified)
inactive

// return assay outcome for CCOC(=O)C(NC(=O)CC(C)C)(NC(C)C)C(F)(F)F (stereo unspecified)
inactive

Kindly provide the recorded test outcome for the following compound: C=C1C(=O)OC2C1C(=O)C/C(C)=C/CCC1(C)OC21 (stereo unspecified)
inactive

Look up the recorded call for CC(C)CC(O)P(=O)(O)O.NC1CCCCC1 (stereo unspecified) in this test.
inactive

Could you check what this test reported for O=c1[nH]cnc2c1ncn2[C@@H]1C[C@@H]1CO ?
inactive

In this assay, the call recorded for CCCc1nnc2sc(COc3ccc(OCc4nn5c(CCC)nnc5s4)c(Cl)c3)nn12 was what?
inactive

# fetch the recorded call for C=CCc1cc(-c2cc(CC=C)c(O)c(CNC)c2)cc(CNC)c1O here
inactive

Dear all, I need the recorded test outcome for O=c1oc2ccccc2cc1-c1cn2c(n1)sc1ccccc12 , thank you.
inactive

Which result was noted for this compound in the test: Clc1ncnc(Cl)c1Cl
inactive

----------
Test system: HT-29
MEASUREMENT_PROTOCOL: NCI tumour cell line growth inhibition, 48 h
The source made the active and inactive calls. Cut-off read from the data, not from the text of the source: active = GI50 up to about 1.1 µM and inactive = higher. Starred links: 1 amine or outer side, 2 acyl side, 3 side chain; linkers in the order of their positions; H or OH if unused. Positions of bridges follow the written chain, without caps; N, C: chain ends. Non-standard residues stand in square brackets, D forms with d. Residues, ends and D or L forms follow the SMILES beside them. *: point of attachment. X40 = CC[C@H](C)[C@@H](N[*:1])[C@@H](O)CC(=O)[*:2]; NMeY = CN[C@@H](Cc1ccc(O)cc1)C(=O)O; dNMeL = CN[C@H](CC(C)C)C(=O)O; Hiv = CC(C)[C@H](O)C(=O)O; Pyruvoyl = CC(=O)C(=O)*
Valid outcomes are listed here; reply with one: active, inactive

Examples from the recorded data:
* CC[C@H](C)[C@H]1NC(=O)[C@@H](NC(=O)[C@@H](CC(C)C)N(C)C(=O)[C@@H]2CCCN2C(=O)C(C)=O)[C@@H](C)OC(=O)[C@H](Cc2ccc(OC)cc2)N(C)C(=O)[C@@H]2CCCN2C(=O)[C@H](CC(C)C)NC(=O)[C@H](C(C)C)OC(=O)C[C@@H]1O (Pyruvoyl-P[dNMeL]T[X40][Hiv]LP[NMeY](Me); ester 3-C) | active
* O=C(CSc1nc2ccccc2s1)c1sc2sc3ccccc3[n+]2c1[O-] | inactive
* NC(Cc1n[nH]c2ccccc12)C(=O)O (stereo not drawn) | inactive
* O=c1c(-c2ccccc2)c2oc(c1-c1ccccc1)CSCc1cccc(c1)CSC2 | inactive
* O=C(O)[C@@H]1CCC(=O)N1C(c1ccc2c(c1)OCO2)c1ccc2c(c1)OCO2 | inactive
* C#CC1(O)C(COP(=O)(O)OCC2OC(n3ccc(NCCCCCCCCCCCCCCCCCC)nc3=O)C(O)C2O)OC(n2ccc(N)nc2=O)C1O (stereo not drawn) | active

Consider now this further molecule.
Field: outcome | Entry: O=C1CN(c2ccccc2)C(=O)CN1NCNN1CC(=O)N(c2ccccc2)CC1=O
inactive

----------
System: A549
MEASUREMENT_PROTOCOL: NCI tumour cell line growth inhibition, 48 h
Activity calls are given as the source filed them. No stated cut-off is given here; in the data, active = GI50 up to about 1.1 µM and inactive = higher.
Reply using exactly one outcome from yes (1) (active), no (0) (inactive)

• COc1cccc(CCn2c(N)c(-c3cc(Cl)cc(Cl)c3)c3ccc([N+](=O)[O-])cc3c2=O)c1 = no (0)
• CCCCC1(C)C=C/C(=C2/C(=O)O/C(=C\C(=O)O)C2=O)O1 (stereo unspecified) = no (0)
• C#CC1(O)C(COP(=O)(O)OCC2OC(n3ccc(NCCCCCCCCCCCCCCCCCC)nc3=O)C(O)C2O)OC(n2ccc(N)nc2=O)C1O (stereo unspecified) = yes (1)
• C[C@@H]1OC(=O)N2CCCC(=C3SCCCS3)C12 (stereo partly specified) = no (0)
• O=C(O)c1ccc([I+]c2ccccc2)cc1 = no (0)

For CCCc1cn2c(/C=N/N=C(N)N)c(-c3c(OC)ccc(OC)c3[N+](=O)[O-])nc2s1 , which call appears in the assay record?
no (0)

Short answer needed: outcome of this test for CC(Nc1ncc2c(n1)-c1ccccc1OC2)C(=O)O (stereo unspecified) ?
no (0)

I'd appreciate the recorded outcome for C=C1C(=O)OC2C1C(=O)C/C(C)=C/CCC1(C)OC21 (stereo unspecified) from this test.
no (0)

Kindly provide the recorded test outcome for the following compound: COc1ccc(/[N+]([O-])=C/c2ccc(OC(=S)S)c(OC)c2)cc1
no (0)

Can you look up the reported call for Cc1cc(C)c2nccc(NCCCN(C)C)c2c1[N+](=O)[O-] for me?
no (0)

GET /call?item= Cc1c(C)c(S(=O)(=O)N(CCCN)OCCCN)c(C)c2c1OC(C)(C)C2 returns the recorded outcome of this test.
no (0)

----------
GI50 values for the molecules below.
Test system: HCT-116
MEASUREMENT_PROTOCOL: NCI tumour cell line growth inhibition, 48 h
Activity calls are given as the source filed them. Cut-off read from the data, not from the text of the source: active = GI50 up to about 1.1 µM and inactive = higher.

Check HCT-116 data and give GI50 for Cc1cc2c(c(C(=O)NCCC(=O)N[C@@H](C)C(=O)OCc3ccccc3)c1)Oc1c(cc(C)cc1C(=O)NCCC(=O)N[C@@H](C)C(=O)OCc1ccccc1)S2 .
> 100 µM (inactive)

Would you please give the reported GI50 of COc1ccc(/C=N/N=C(\N)NO)cc1O with HCT-116?
37.5 µM (inactive)

GET GI50 where system = HCT-116 and item = c1ccc(C2=NNC3c4ccccc4-c4ccccc4N3C2)cc1 (stereo not given)
34 µM (inactive)

Please respond with reported GI50 (system HCT-116) for CCc1n[nH]c(=O)n1CC .
> 100 µM (inactive)

Write down the reported GI50 (system: HCT-116) of CCOC(=O)C(=C=Cc1cccs1)C(=O)c1ccccc1
14.6 µM (inactive)

Param request: GI50 | system HCT-116 | item c1ccc2c(c1)Sc1nccc3ccnc-2c13
27.4 µM (inactive)

Given COC(=O)C1=C(CCCCO[Si](C)(C)C(C)(C)C)NC(=O)N2[C@@H](CCOCc3ccccc3)CC[C@H]12 , report its GI50 on HCT-116.
10.9 µM (inactive)

Return reported GI50 for target or system HCT-116, item CC(=O)Oc1ccc2oc(=O)cc(C)c2c1 .
> 100 µM (inactive)

Quote HCT-116 GI50 for entry NC(Cc1ccccc1)C(=O)NC(Cc1ccccc1)NC(=O)C(Cc1c[nH]c2ccccc12)C(=O)O (stereo not given) .
> 100 µM (inactive)

Would you please give the reported GI50 of CCOC(=O)/C(=N\Nc1ccc(-n2c(C)nc3ccc(Br)cc3c2=O)cc1)C(C)=O with HCT-116?
43.6 µM (inactive)
